compounds and their reported Population Hoechst High Intensity Objects (%)
- Test system: HEK-293T
- ASSAY INFO: Multiplex assay against HEK293T
- Format: toxicity, cell-based
- CONDITION: human, 12 h, 1 µM, compound concentration 1 uM, replicate 1
Non-standard residues stand in square brackets, D forms with d. Residues, ends and D or L forms follow the SMILES beside them.
State just the number; it will be interpreted in %.

stdin: Observed Population Hoechst High Intensity Objects (%) on HEK-293T for "C[C@H](NC(=O)CNC(=O)c1cccc(Cl)c1)c1ccccc1" , please.
stdout: 8

stdin: Recall the recorded Population Hoechst High Intensity Objects (%) for "Cc1c(Cc2ccc3ccccc3n2)c2cc(F)ccc2n1CC(=O)O" with HEK-293T and state it.
stdout: 10

stdin: Give HEK-293T Population Hoechst High Intensity Objects (%) for Cc1ccc(OCC(O)C(C)NC(C)C)c2c1CCC2.Cl (centres undefined)
stdout: 5

stdin: Observed Population Hoechst High Intensity Objects (%) on HEK-293T for "Cc1cc(-c2ccc3c(c2)CC[C@H]3N2CC3(CCN(C(=O)Cc4cn5cc(C)sc5n4)CC3)C2)ncn1" , please.
stdout: 5

stdin: Notebook: pull reported Population Hoechst High Intensity Objects (%) for HEK-293T, entry "OCCCNc1cc(-c2ccnc(Nc3cccc(Cl)c3)n2)ccn1"
stdout: 14

stdin: State its Population Hoechst High Intensity Objects (%) on HEK-293T: "Cc1sc2c(c1C)C(c1ccc(Cl)cc1)=N[C@H](CC(=O)OC(C)(C)C)c1nnc(C)n1-2"
stdout: 8

stdin: Provide the documented Population Hoechst High Intensity Objects (%) with HEK-293T as the system for COc1cc2nc(N3CCN(C(=O)c4ccco4)CC3)nc(N)c2cc1OC.Cl [PRAZOSIN HYDROCHLORIDE]
stdout: 6

stdin: Population Hoechst High Intensity Objects (%) of CC(C)C[C@@H]1NC(=O)[C@@H](C(C)C)NC(=O)[C@@H]2CCCN2C(=O)[C@@H](CC(=O)O)NC(=O)[C@@H](Cc2c[nH]c3ccccc23)NC1=O [BQ-123] (cyclo(L[dW][dD]P[dV])) on HEK-293T?
stdout: 4

stdin: // map "COc1cc2nc(N3CCN(C(=O)COc4c(OC)cccc4C(C)C)CC3)nc(N)c2cc1OC.Cl.Cl" to recorded Population Hoechst High Intensity Objects (%) (system: HEK-293T)
stdout: 5

---

- Tested on: U2OS
- ASSAY INFO: Multiplex assay against U2OS
- Type: toxicity, cell-based
- CONDITION: human, 12 h, 10 µM, compound concentration 10 uM, replicate 2
Non-standard residues stand in square brackets, D forms with d. Residues, ends and D or L forms follow the SMILES beside them.
PROPERTY MEASURED: Population Apoptotic (%)
Give the value, in units of %, as a plain number.

COc1ccc2[nH]c(I)c(CCNC(C)=O)c2c1
80
Cc1sc2c(c1C)C(c1ccc(Cl)cc1)=N[C@H](CC(=O)OC(C)(C)C)c1nnc(C)n1-2
90
Nc1nc(CC(=O)Nc2ccc(CCNC[C@H](O)c3ccccc3)cc2)cs1
66
CN1CCC(C(=O)c2cccc(NC(=O)c3c(F)cc(F)cc3F)n2)CC1
64
O=C(NCCNCC(O)COc1ccc(O)cc1)N1CCOCC1.O=C(NCCNCC(O)COc1ccc(O)cc1)N1CCOCC1.O=C(O)/C=C/C(=O)O (configuration not stated) [XAMOTEROL FUMARATE]
100
CCCCCCNC(=O)Nc1ccc(S(=O)(=O)Nc2ccc(CCNC[C@H](O)COc3ccc(O)cc3)cc2)cc1
72
CN(C)C/C=C/C(=O)Nc1ccc(C(=O)N2CCCC(Nc3ncc(Cl)c(-c4c[nH]c5ccccc45)n3)C2)cc1 (configuration not stated)
75
Cn1cc(C(=O)OCC2CCN(CCNS(C)(=O)=O)CC2)c2ccccc21
57
Cc1cc(NC(=O)NCCN2CCC(O)(Cc3ccccc3)CC2)c2ccccc2n1
66
Nc1nc(-c2ccco2)c2cnn(Cc3ccccc3F)c2n1
77

stdin: Give the measured Population Apoptotic (%) of O=C(O)CCC/C=C\CC1C(O)CC(O)C1/C=C/C(O)COc1cccc(Cl)c1 (configuration not stated) .
stdout: 45

stdin: Which Population Apoptotic (%) value is on record for CC(C)C[C@@H]1NC(=O)[C@@H](C(C)C)NC(=O)[C@@H]2CCCN2C(=O)[C@@H](CC(=O)O)NC(=O)[C@@H](Cc2c[nH]c3ccccc23)NC1=O [BQ-123] (cyclo(L[dW][dD]P[dV])) ?
stdout: 75

stdin: Entry "COc1cc2nc(N3CCN(C(=O)COc4c(OC)cccc4C(C)C)CC3)nc(N)c2cc1OC.Cl.Cl" has what Population Apoptotic (%)?
stdout: 66

stdin: Recorded Population Apoptotic (%) for "COc1cc(Nc2ncc3c(n2)-c2ccc(Cl)cc2C(c2c(F)cccc2OC)=NC3)ccc1C(=O)O" , please?
stdout: 71

stdin: # Population Apoptotic (%) lookup, item "CN(C)C(=O)Cn1cc(-c2ccc(-c3nnc4ccccn34)cc2)cn1"
stdout: 90

stdin: Value lookup for Population Apoptotic (%); key = "CC(C)(O)C(=O)N1CCN(c2ccc(C(F)(F)F)c(C3=C(c4c[nH]c5ccccc45)C(=O)NC3=O)c2)CC1"
stdout: 50

stdin: Find the recorded Population Apoptotic (%) belonging to CN1C[C@H](C(=O)N[C@]2(C)O[C@@]3(O)[C@@H]4CCCN4C(=O)[C@H](Cc4ccccc4)N3C2=O)C[C@@H]2c3cccc4[nH]cc(c34)C[C@H]21.CS(=O)(=O)O [DIHYDROERGOTAMINE MESYLATE] and report it.
stdout: 100

---

Measured Population Healthy Nuclei (%), listed per entry.
- Tested on: Fibroblast
- ASSAY INFO: Multiplex assay against human fibroblast
- Format: toxicity, cell-based
- CONDITION: 24 h, 1 µM, compound concentration 1 uM, replicate 1
Form entry: value (%) — number only.

stdin: What Population Healthy Nuclei (%) value was documented for this compound, CN(C)C/C=C/C(=O)Nc1ccc(C(=O)N2CCCC(Nc3ncc(Cl)c(-c4c[nH]c5ccccc45)n3)C2)cc1 (stereo not given) ?
stdout: 48

stdin: Please report the recorded Population Healthy Nuclei (%) for "O=C(Nc1cc(-c2ccccc2)nn1-c1ccccc1F)c1ccc([N+](=O)[O-])cc1" .
stdout: 74

stdin: Population Healthy Nuclei (%) lookup needed for "CC(C)(C)c1ccc(CSc2cnn(C(C)(C)C)c(=O)c2Cl)cc1" , thanks.
stdout: 71

stdin: Using the record for COCCCN1CCC(NC(=O)c2cc(Cl)c(N)c3c2OCC3)CC1 [PRUCALOPRIDE] , report its Population Healthy Nuclei (%).
stdout: 57

stdin: State the recorded Population Healthy Nuclei (%) for this entry: "Cc1cc(=O)n(C)c2cc(N3C(=O)CC[C@H](NS(=O)(=O)CC(C)C)[C@H]3c3ccc(Cl)cc3)ccc12"
stdout: 62

---

- System: Fibroblast
- ASSAY INFO: Multiplex assay against human fibroblast
- Type: toxicity, cell-based
- CONDITION: 48 h, 10 µM, compound concentration 10 uM, replicate 2
Non-standard residues stand in square brackets, D forms with d. Residues, ends and D or L forms follow the SMILES beside them.
Documented Population Hoechst High Intensity Objects (%) across a set of compounds
Provide only the numeric value, understood in %.

COc1cc2nc(N3CCN(C(=O)c4ccco4)CC3)nc(N)c2cc1OC.Cl [PRAZOSIN HYDROCHLORIDE]
5
CCCCCCNC(=O)Nc1ccc(S(=O)(=O)Nc2ccc(CCNC[C@H](O)COc3ccc(O)cc3)cc2)cc1
3
COc1c(Nc2ccc(S(C)(=O)=O)nc2C)ncnc1OC1CCN(C(=O)OC(C)C)CC1
2
CC(C)(O)C(=O)N1CCN(c2ccc(C(F)(F)F)c(C3=C(c4c[nH]c5ccccc45)C(=O)NC3=O)c2)CC1
6
COc1cc(C(=O)N2CC[C@@H](O)[C@@H](N)C2)cc2nc(-c3cc4ccccc4n3CC3CC3)n(C)c12.Cl
4
CC(C)C[C@H](CO)Nc1nc(S[C@@H](C)c2ccccc2)nc2nc(N)sc12
1
CC(C)(C)c1ccc(CSc2cnn(C(C)(C)C)c(=O)c2Cl)cc1
5
CSc1nc(NC2CCCC2)c([N+](=O)[O-])c(NC2CCCC2)n1
6

stdin: Field: Population Hoechst High Intensity Objects (%) (Fibroblast). Entry: "CN(C)C(=O)Cn1cc(-c2ccc(-c3nnc4ccccn34)cc2)cn1"
stdout: 3

stdin: Identify the measured Population Hoechst High Intensity Objects (%) of O=C(NCCNCC(O)COc1ccc(O)cc1)N1CCOCC1.O=C(NCCNCC(O)COc1ccc(O)cc1)N1CCOCC1.O=C(O)/C=C/C(=O)O (configuration not stated) [XAMOTEROL FUMARATE] for Fibroblast.
stdout: 3

stdin: # value lookup — system Fibroblast, readout Population Hoechst High Intensity Objects (%), item "O=C(Nc1cc(-c2ccccc2)nn1-c1ccccc1F)c1ccc([N+](=O)[O-])cc1"
stdout: 5

stdin: Give the reported Population Hoechst High Intensity Objects (%) for "Nc1nc(CC(=O)Nc2ccc(CCNC[C@H](O)c3ccccc3)cc2)cs1" (system: Fibroblast).
stdout: 3

stdin: What reported Population Hoechst High Intensity Objects (%) corresponds to "OCCCNc1cc(-c2ccnc(Nc3cccc(Cl)c3)n2)ccn1" on Fibroblast?
stdout: 6

stdin: Field: Population Hoechst High Intensity Objects (%) (Fibroblast). Entry: "Nc1nc(-c2ccco2)c2cnn(Cc3ccccc3F)c2n1"
stdout: 5

stdin: Given the entry "CN1CCN(c2ccc(Nc3c4ccccc4nc4ccccc34)cc2)CC1.Cl.Cl.O" , what Population Hoechst High Intensity Objects (%) was observed with Fibroblast?
stdout: 38

stdin: GET /values?readout=Population Hoechst High Intensity Objects (%)&system=Fibroblast&item= "COc1cc(OC2CCN(C(C)=O)CC2)ccc1C(=O)N1CCC(N2C(=O)OCc3ccccc32)CC1"
stdout: 3

stdin: Test system Fibroblast; read-out Population Hoechst High Intensity Objects (%); what value for CC(C)C[C@@H]1NC(=O)[C@@H](C(C)C)NC(=O)[C@@H]2CCCN2C(=O)[C@@H](CC(=O)O)NC(=O)[C@@H](Cc2c[nH]c3ccccc23)NC1=O [BQ-123] (cyclo(L[dW][dD]P[dV])) ?
stdout: 6
